Molecular target: Human immunodeficiency virus type 1 reverse transcriptase (Human immunodeficiency virus 1) (UniProt Q72547)
Test: Inhibition of HIV-1 reverse transcriptase at 100 uM
parameter measured: inhibition (%)
Numbers only, in %.

# smiles, inhibition / %
records = [
    ("CCc1c(C(=O)c2cc(C)cc(C)c2)n(COCCc2ccc(F)cc2)c(=O)n(O)c1=O", 74),
    ("CCc1c(C(=O)c2ccccc2)n(COCCc2ccc(F)cc2)c(=O)n(O)c1=O", 46),
    ("CCc1c(C(=O)c2cc(C)cc(C)c2)n(COCc2ccccc2)c(=O)n(O)c1=O", 92),
]

Req: Find the recorded inhibition belonging to CCOCn1c(C(=O)c2cc(C)cc(C)c2)c(CC)c(=O)n(O)c1=O and report it.
Resp: 94
